- System: SK-OV-3
- assay_details: NCI tumour cell line growth inhibition, 48 h
Calls of active or inactive are those of the source. No stated cut-off is given here; in the data, active = GI50 up to about 1.1 µM and inactive = higher.
measurement_label: GI50

Reference set, count: 3
COc1ccc2c3c(c(=O)n(C)c2c1OC)C=CC(C)(C)O3: 32.1 µM (inactive)
CCOC(=O)C1(Cc2ccccc2)CCN(C(=O)c2ccccc2)C2C1C2(Cl)Cl (centres undefined): 28.6 µM (inactive)
N#CC(NC12CC3CC(CC(C3)C1)C2)c1ccccc1 (centres undefined): > 100 µM (inactive)

Consider C=CCN1CCN([C@H](c2ccc(C(=O)N(CC)CC)cc2)c2cccc(OC)c2)CC1 . Its measured GI50 is > 25 µM (inactive)

----------
- Tested on: HOP-18
- assay_details: NCI tumour cell line growth inhibition, 48 h
Active and inactive are the calls of the source. Rule as the data show it: active = GI50 up to about 1.1 µM and inactive = higher.
Give one outcome, nothing more. List: t = active, f = inactive

CCOC(=O)C(=O)Nc1nc2ccc(OC)cc2s1: f
COC(=O)C1(O)c2ccccc2N=C2C1CCN2C (centres undefined): f
Cc1ccc(NC(=O)CC2Sc3ccccc3NC2=O)c(C)c1 (centres undefined): f
CCC(=O)N1C(=O)OCC1C(C)C (centres undefined): f
COC(=O)C1CC(OC(C)=O)C=C2C(=O)CCC21 (centres undefined): f
O=C1NC(Cc2ccccc2)C(=O)N2CCCC12 (centres undefined): f
CN(CC(=O)O)S(=O)(=O)c1ccc(F)cc1: f
CC(C(=O)[O-])S(=O)(=O)O.CCc1c2cc(OC)c(OC)cc2cc2c3cc(OC)c(OC)cc3cc[n+]12: f

query: Which result was noted for this molecule in the test: COC(=O)C1CSC(c2csc(CCN)n2)=N1 (centres undefined)
result: f

query: Which result was noted for this molecule in the test: Cc1cc(O)c2c(c1)C(O)(c1ccc3c(c1O)C(=O)c1c(O)cc(C)cc1C3(O)C1OC(CO)C(O)C(O)C1O)c1cccc(O)c1C2=O (centres undefined)
result: f

query: Which result was noted for this molecule in the test: COC(=O)C(=O)C1(CCC(C)=O)c2ccccc2-c2ccccc21
result: f

query: Which result was noted for this molecule in the test: O=C(O)CCCCCCCCC(=O)O
result: f

query: Which result was noted for this molecule in the test: O=C1CCNC/C1=C\c1ccccc1
result: f

query: Which result was noted for this molecule in the test: COc1cc(/C=C\c2ccncc2)cc(OC)c1OC
result: f

query: Which result was noted for this molecule in the test: COC(=O)[C@@H]1c2cc3c(c(O)c2[C@@H](OC)C[C@@]1(C)O)C(=O)c1c(O)cc2c(c1C3=O)OC1O[C@@]2(C)[C@H](O)[C@@H](N(C)C)[C@@H]1O
result: t

query: Which result was noted for this molecule in the test: O=C(O)c1ccc([N+](=O)[O-])c2c(=O)c3ccccc3[nH]c12
result: f

query: Which result was noted for this molecule in the test: C[C@H]1[C@@H]2C[C@@H]3O[C@@]34[C@H]3CCC5Cc6nc7c(nc6C[C@@]5(C)[C@]3(O)CC(=O)[C@@]24CO[C@]12OC(C)(C)C[C@@H]2O)CC1CC[C@@H]2C3=C[C@H]4O[C@@]5(OC(C)(CO)C[C@@H]5O)[C@H](C)[C@@]4(O)[C@]3(C)[C@@H](O)CC2[C@]1(C)C7 (some centres undefined)
result: f

query: Which result was noted for this molecule in the test: CCCCN1C(=O)C2c3[nH]c4ccccc4c3C3CCCCC3C2C1=O.CCCCN1C(=O)C2c3[nH]c4ccccc4c3[C@@H]3CCCCC3C2C1=O (centres undefined)
result: f

query: Which result was noted for this molecule in the test: CC1CN1c1c(C(=O)/C=C/c2ccccc2)c(-c2ccccc2)nn(C)c1=O (centres undefined)
result: f
